Molecular target: SCD1 (Homo sapiens, UniProt O00767)
Construct: host or cells: S. cerevisiae ole1Δ strain, plasmid pRS316 with TDH3 promoter and CYC1 terminator
Sequence (O00767 1-359): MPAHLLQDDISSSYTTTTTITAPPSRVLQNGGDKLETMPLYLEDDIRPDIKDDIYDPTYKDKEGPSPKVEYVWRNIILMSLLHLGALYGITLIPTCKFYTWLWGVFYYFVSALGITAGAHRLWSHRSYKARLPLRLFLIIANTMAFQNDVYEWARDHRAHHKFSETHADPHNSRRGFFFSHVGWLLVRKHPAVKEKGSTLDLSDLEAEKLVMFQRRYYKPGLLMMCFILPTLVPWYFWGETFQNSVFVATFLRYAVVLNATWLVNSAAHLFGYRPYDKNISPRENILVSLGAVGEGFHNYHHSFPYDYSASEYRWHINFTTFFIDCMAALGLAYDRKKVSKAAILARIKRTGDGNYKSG
Assay: Growth inhibition of humanized yeast expressing SCD1 as sole desaturase
Type: cell-based
Conditions: humanized yeast expressing SCD1
Below, each of the compounds is paired with its reported IC50 value.

Answered cases to consult:
COc1ccc(-c2noc(C3CCN(C(=O)[C@@H]4CC(=O)N(c5ccccc5)C4)CC3)n2)cc1OC
> 45 µM
COc1ccc(-c2noc(C3CCNCC3)n2)cc1OC
> 45 µM
Cc1ccc(-c2nc(C3CCN(C(=O)C4CC(=O)N(c5ccc(C)c(C)c5)C4)CC3)no2)cc1 (stereo not drawn)
41 µM
CCN(Cc1nc(-c2ccc(OC)c(OC)c2)no1)C(=O)Cc1ccccc1
> 45 µM
CCN1C(=O)COc2ccc(-c3noc(C4(c5ccc(OC)cc5)CC4)n3)cc21
> 45 µM

The compound listed as COc1cccc(-c2noc(C3CC(=O)N(c4ccc(C)c(C)c4)C3)n2)c1 (stereo not drawn) has a reported IC50 of 41 µM

Item: "COc1ccc(-c2noc(C3CCN(C(=O)[C@@H]4CC(=O)N(c5ccc(C)c(C)c5)C4)CC3)n2)cc1OC" | IC50: > 45 µM

Memo: "CCOc1ccc(-c2noc(C3CCN(C(=O)[C@@H]4CC[C@H](c5ccccc5)N4)CC3)n2)cc1OC" , reported IC50: > 45 µM

Entry under test: "COc1ccc(-c2noc(CCNC(=O)COc3cc(O)c4c(c3)OC(C)(C)CC4=O)n2)cc1OC" . Its IC50 was > 45 µM
